Selectivity Binding IC50 5R/4R for assorted molecules
# studySystem: UniProt P32245
# assayRemarks: Competitive binding assay, [125I]-NDP-α-MSH, CHO cell membranes
# Set-up: expressed in transfected cells; host or cells: Chinese hamster ovary (CHO) cells
# testSettings: ratio of IC50 hMC-5R / hMC-4R
# Method: The peptides of the present invention were evaluated for […] in receptor binding assay. Crude membrane preparations were obtained from Chinese hamster ovary cells expressing human MC3, MC4, and MC5 receptors. Cells were rinsed with phosphate-buffered saline (PBS) lacking CaCl2 or MgCl2 (Life Technologies, Gaithersburg, Md., USA), and then detached with enzyme-free dissociation media (Specialty Media, Lavellette, N.J., USA). […]
Numbered stars: 1 amine (or outer) side, 2 acyl side, 3 side chain; on linkers, the order of the positions; unused ones are H or OH. Bridge positions count the residues as written; N and C are the ends. Square brackets hold non-standard residues; d marks the D form. Peptide text beside a SMILES is read from it. ξ: configuration not given here. Suc = O=C(CCC(=O)[*:2])[*:1]; ξK = NCCCCC(N)C(=O)O; ξDap = NCC(N)C(=O)O
reportedMetric: Selectivity Binding IC50 5R/4R

• N=C(N)NCCC[C@@H]1NC(=O)[C@@H](Cc2ccccc2)NC(=O)[C@H](Cc2c[nH]cn2)NC(=O)CCC(=O)NCCCCC(C(N)=O)NC(=O)[C@H](Cc2c[nH]c3ccccc23)NC1=O (some centres unmarked) [Example 1] (H[dF]RW[ξK]-NH2; linker N-5 via Suc) = 124
• N=C(N)NCCC[C@@H]1NC(=O)[C@@H](Cc2ccccc2)NC(=O)[C@H](Cc2c[nH]cn2)NC(=O)CCC(=O)NCC(C(N)=O)NC(=O)[C@H](Cc2c[nH]c3ccccc23)NC1=O (some centres unmarked) [Example 3] (H[dF]RW[ξDap]-NH2; linker N-5 via Suc) = 50.7

----------
# studySystem: MC4R (Homo sapiens)
# Sequence (P32245 whole entry): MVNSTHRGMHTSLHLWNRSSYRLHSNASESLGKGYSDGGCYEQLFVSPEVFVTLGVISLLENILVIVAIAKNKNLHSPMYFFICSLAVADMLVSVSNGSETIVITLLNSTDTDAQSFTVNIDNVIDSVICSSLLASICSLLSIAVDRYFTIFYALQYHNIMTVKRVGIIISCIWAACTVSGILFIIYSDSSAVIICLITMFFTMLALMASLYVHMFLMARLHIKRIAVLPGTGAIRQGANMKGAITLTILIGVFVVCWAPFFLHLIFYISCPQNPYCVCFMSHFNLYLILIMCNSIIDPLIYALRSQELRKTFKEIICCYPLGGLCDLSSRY
# assayRemarks: cAMP assay in CHO cells expressing a human melanocortin receptor
# Assay type: cell-based
# Set-up: expressed in transfected cells; host or cells: Chinese hamster ovary (CHO) cells
# testSettings: ratio of EC50 hMC-3R / hMC-4R
# Experimental: Chinese hamster ovary cells expressing a human melanocortin receptor were rinsed with calcium-and magnesium-free PBS (Life Technologies), and detached from the tissue culture flasks by 5-minutes incubation with enzyme-free dissociation buffer (S-014-B, Specialty Media). […] Subsequently, cells were counted and the cell suspension was treated with the phosphodiesterase inhibitor 3-isobutyl-1-methylxanthine (to concentration of 0.6 mM). […]
Numbered stars: 1 amine (or outer) side, 2 acyl side, 3 side chain; on linkers, the order of the positions; unused ones are H or OH. Bridge positions count the residues as written; N and C are the ends. Square brackets hold non-standard residues; d marks the D form. Peptide text beside a SMILES is read from it. ξ: configuration not given here. dPhe(4-Cl) = N[C@H](Cc1ccc(Cl)cc1)C(=O)O; 2Nal = N[C@@H](Cc1ccc2ccccc2c1)C(=O)O; Suc = O=C(CCC(=O)[*:2])[*:1]; ξK = NCCCCC(N)C(=O)O; ξDap = NCC(N)C(=O)O
reportedMetric: Selectivity cAMP EC50 3R/4R

• N=C(N)NCCC[C@@H]1NC(=O)[C@@H](Cc2ccccc2)NC(=O)[C@H](Cc2c[nH]cn2)NC(=O)CCC(=O)NCC(C(N)=O)NC(=O)[C@H](Cc2c[nH]c3ccccc23)NC1=O (stereo partly shown) [Example 3] (H[dF]RW[ξDap]-NH2; linker N-5 via Suc) = 17.8
• N=C(N)NCCC[C@@H]1NC(=O)[C@@H](Cc2ccc(Cl)cc2)NC(=O)[C@H](Cc2c[nH]cn2)NC(=O)CCC(=O)NCCCCC(C(N)=O)NC(=O)[C@H](Cc2c[nH]c3ccccc23)NC1=O (stereo partly shown) [Example 4] (H[dPhe(4-Cl)]RW[ξK]-NH2; linker N-5 via Suc) = 54
• N=C(N)NCCC[C@@H]1NC(=O)[C@@H](Cc2ccccc2)NC(=O)[C@H](Cc2c[nH]cn2)NC(=O)CCC(=O)NCCCCC(C(N)=O)NC(=O)[C@H](Cc2c[nH]c3ccccc23)NC1=O (stereo partly shown) [Example 1] (H[dF]RW[ξK]-NH2; linker N-5 via Suc) = 33
• N=C(N)NCCC[C@@H]1NC(=O)[C@@H](Cc2ccccc2)NC(=O)[C@H](Cc2c[nH]cn2)NC(=O)CCC(=O)NCCCCC(C(N)=O)NC(=O)[C@H](Cc2ccc3ccccc3c2)NC1=O (stereo partly shown) [Example 5] (H[dF]R[2Nal][ξK]-NH2; linker N-5 via Suc) = 97.3
